Source of measurements: patent US11331327B2

Tested on: MRSA 01, MRSA 15, MRSA 16
Assay: Mutational frequency evaluation, Example 3
Format: cell-based, Staphylococcus aureus
Settings: strain MRSA 01; concentration MIC × 4; average of 10 replicates
Marks after values point to notes of the source that are not given here.
attribute_measured: Frequency of spontaneous mutations conferring resistance

// known answers, use as guide
* O=C(Nc1ccc([N+](=O)[O-])cc1Cl)c1cc(Cl)ccc1O [Niclosamide] | <4 × 10^−9*
* C/C(=C\C(=O)OCCCCCCCCC(=O)O)C[C@@H]1OC[C@H](C[C@@H]2O[C@H]2[C@@H](C)[C@H](C)O)[C@@H](O)[C@H]1O | 1.10^−8
* C=C[C@]1(C)C[C@@H](OC(=O)CS[C@@H]2C[C@H]3CC[C@@H](C2)N3C)[C@]2(C)[C@H](C)CC[C@]3(CCC(=O)[C@H]32)[C@@H](C)[C@@H]1O | 2.10^−8

Then this compound:
Task item: Provide one value: measured Frequency of spontaneous mutations conferring resistance of "CC(=O)O[C@H]1C[C@@]2(C)[C@@H](C[C@@H](O)[C@H]3[C@@]4(C)CC[C@@H](O)[C@@H](C)[C@@H]4CC[C@@]32C)/C1=C(\CCC=C(C)C)C(=O)O"
Reply: 1.10^−6

====

mutational frequency at MIC×1: recorded values
Test system: MRSA 01, MRSA 15, MRSA 16
Assay: Mutational frequency evaluation, Example 1
Assay type: cell-based, Staphylococcus aureus
Conditions: text summary of Table 4

Consider the following illustrative entries.
* O=C(Nc1ccc([N+](=O)[O-])cc1Cl)c1cc(Cl)ccc1O [Niclosamide] | < 4×10^−10
* O=C(Nc1cc(Cl)cc(Cl)c1O)c1c(O)c(Cl)cc(Cl)c1Cl [Oxyclozanide] | 1×10^−7
* Cc1cc(C(C#N)c2ccc(Cl)cc2)c(Cl)cc1NC(=O)c1cc(I)cc(I)c1O (stereo not shown) [Closantel] | 2×10^−8

Task item: Please list mutational frequency at MIC×1 recorded for the molecule O=C(Nc1ccc(Oc2ccc(Cl)cc2)c(Cl)c1)c1cc(I)cc(I)c1O [Rafoxanide]
Reply: 5×10^−9

====

Test system: MRSA 01, MRSA 15, MRSA 16
Assay: Mutational frequency evaluation, Example 3
Format: cell-based, Staphylococcus aureus
Conditions: strain MRSA 01; concentration MIC × 2; average of 10 replicates
Marks after values point to notes of the source that are not given here.
attribute_measured: Frequency of spontaneous mutations conferring resistance

Past entries and their recorded results:
- C=C[C@]1(C)C[C@@H](OC(=O)CS[C@@H]2C[C@H]3CC[C@@H](C2)N3C)[C@]2(C)[C@H](C)CC[C@]3(CCC(=O)[C@H]32)[C@@H](C)[C@@H]1O [Retapamulin]: 3.10^−7
- O=C(Nc1ccc([N+](=O)[O-])cc1Cl)c1cc(Cl)ccc1O [Niclosamide]: <4 × 10^−9*
- CC(=O)O[C@H]1C[C@@]2(C)[C@@H](C[C@@H](O)[C@H]3[C@@]4(C)CC[C@@H](O)[C@@H](C)[C@@H]4CC[C@@]32C)/C1=C(\CCC=C(C)C)C(=O)O [Fusidic acid]: 2.10^−5

For the next question, use this molecule.
Task item: In one line, give reported Frequency of spontaneous mutations conferring resistance of the entry C/C(=C\C(=O)OCCCCCCCCC(=O)O)C[C@@H]1OC[C@H](C[C@@H]2O[C@H]2[C@@H](C)[C@H](C)O)[C@@H](O)[C@H]1O [Mupirocin] .
Reply: 8.10^−8
